molecular target: TDP-43 (Homo sapiens, UniProt Q13148 1-414); test: RNA Bind-n-Seq with designed 260-mer pool; 25 mM Tris-HCl, 150 mM KCl, 3 mM MgCl2, BSA (printed 500 mg/mL), 20 units/mL SUPERase IN; pH not stated; 500 nM RNA pool, 1 h, 4 C; TDP-43 5, 50, 500 nM; high values mean tight binding; settings: protein: recombinant; tags: SBP (GST cleaved off with PreScission; pGEX-GST-SBP)
Sequence (Q13148 whole entry): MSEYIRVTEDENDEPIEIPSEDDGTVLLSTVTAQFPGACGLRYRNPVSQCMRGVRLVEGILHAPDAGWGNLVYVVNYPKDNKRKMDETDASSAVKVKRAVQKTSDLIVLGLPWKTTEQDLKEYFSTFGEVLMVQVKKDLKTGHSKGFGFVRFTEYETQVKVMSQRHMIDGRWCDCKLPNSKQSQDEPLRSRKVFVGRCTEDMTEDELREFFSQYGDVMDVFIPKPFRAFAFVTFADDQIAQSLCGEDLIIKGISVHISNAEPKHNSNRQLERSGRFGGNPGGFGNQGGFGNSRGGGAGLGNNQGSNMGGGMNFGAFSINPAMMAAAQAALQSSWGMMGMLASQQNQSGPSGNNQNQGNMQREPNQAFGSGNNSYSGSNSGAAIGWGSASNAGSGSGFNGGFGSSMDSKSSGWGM
The full ranking holds about 9,900 sequences; the median of “r (bound/input frequency ratio)” is about 0.7, and the highest 2% start at about 6.5. The sample holds the highest values, similar sequences and a random draw of the others, so the mix is not that of the screen.

BINDER	binding signal
ENSMUSG00000031028.418|Tub (ssRNA) RNA: GGGAGUUCUACAGUCCGACGAUCGCUUCGAUAUCCGCAUGCUAGCAAAUUGGUGAGAAGAGCAGCCUAGUCUGUAAGAGUGCAGGGCAGCUGGAACCUUAGGCAGCUCCUCUGUAUGCUACCGGCUCCACACCCUAACACUCUCCACCCUCUGCUCCAAACCAGUUCUUCUGCAGAGUGGUGAUGUUAGCUUCCCCAGCUCCUCUCCAAGUCUAGCUUUUUCUGUCCUUCUGGCUCCAAGGUGCUCUGUGUCUGUGUGUGUGUGUCUGUCUGUGUGUGUGUGUGUCGAGGAAAGGGCAAUCUGCUCUUGCGGUCGCACUAGUGUGGAAUUCUCGGGUGUCAAGG	7.04 R (bound/input frequency ratio)
